Each entry below lists one item and its recorded OD450 nm (PCSK9 bound to LDLR) value.
# target: T1, recombinant human PCSK9 protein, His-tagged (Immunogen A, hPCSK9-His) (human, UniProt Q8NBP7 31-692, limits assumed, biotin-labelled in the ELISA and blocking assays (Biotin labeling kit))
# T1 construct: also called human PCSK9-His; recombinant hPCSK9-His; not shown: His tag
# experimental-protocol: blocking ELISA, biotin-hPCSK9-His on coated LDLR ECD-His; antibody 0.32 nM
Give a bare numeral; the unit OD450 nm is implied.

binder="103C11E8, chimeric anti-PCSK9 mAb purified from hybridoma (antibody, V domains shown, From Harbour H2L2 mice: human variable regions, rat constant regions) VH: QVQLQESGPGLVKPSGTLSLTCAVSGGSISSSNWWSWVRQPPGKGLEWIGEIYHSGSTNYNPSLKSRVTISVDKSKNQFSLKLSSVTAADTAVYYCARGIAVAGTDVMDAWGQGASVTVSS VL: EIVLTQSPATLSLSPGERATLSCRASQSVSSYLVWYQQKSGQAPRLLIYGTSNRATGIPARFSGSGSGTDFTLTISSLEPEDFALYYCQQRGNWMYTFGQGTKLEIK" recorded_measurement=0.92

--- query ---
Consider the binder shown here: 152G2F7, chimeric anti-PCSK9 mAb purified from hybridoma (antibody, V domains shown, From Harbour H2L2 mice: human variable regions, rat constant regions) VH: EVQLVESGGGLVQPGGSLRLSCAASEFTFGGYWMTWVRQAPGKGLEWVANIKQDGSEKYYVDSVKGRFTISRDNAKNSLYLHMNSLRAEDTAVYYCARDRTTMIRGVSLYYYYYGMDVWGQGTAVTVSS VL: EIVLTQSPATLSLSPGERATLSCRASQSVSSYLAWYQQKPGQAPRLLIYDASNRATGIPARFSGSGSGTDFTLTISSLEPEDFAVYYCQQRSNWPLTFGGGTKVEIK What is its recorded OD450 nm (PCSK9 bound to LDLR)?
1.17
